# assayed system: T1, mouse CADM3 (mouse, UniProt Q99N28 23-396)
# T1 construct: Full-length gene expressed transiently on Expi293F cells; also called mouse CADM3/Expi293F cells; Mouse CADM3-expressing cells
# T1 sequence: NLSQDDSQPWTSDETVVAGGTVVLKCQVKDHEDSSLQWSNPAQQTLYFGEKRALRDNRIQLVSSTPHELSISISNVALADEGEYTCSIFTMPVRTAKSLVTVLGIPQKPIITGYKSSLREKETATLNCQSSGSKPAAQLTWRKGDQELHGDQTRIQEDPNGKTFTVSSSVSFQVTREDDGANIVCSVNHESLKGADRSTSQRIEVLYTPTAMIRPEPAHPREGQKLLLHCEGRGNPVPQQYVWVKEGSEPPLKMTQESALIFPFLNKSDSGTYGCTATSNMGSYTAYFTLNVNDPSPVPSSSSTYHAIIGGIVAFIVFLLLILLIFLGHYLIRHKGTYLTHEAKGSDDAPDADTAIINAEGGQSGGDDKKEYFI
# measurement description: flow cytometry, 10 ug/mL, mouse CADM3/Expi293F vs parent Expi293F cells
readout type: Mean fluorescence intensity ratio

INSERT INTO assay_data (binder, readout_type, observed_value) VALUES
  ('anti-AVM antibody (antibody, V domains shown, Negative control; also called chimeric anti-Avermectin (AVM) antibody; anti-AVM-IgG4 antibody) VH: EVQLVESGGGLVQPGRSLKLSCAASGFTFSNYAMAWVRRAPTKGLEWVASISNGGGNTYYRDSVKGRFTISRDDAKNTLYLQMDSLRSEDTATYYCARHGNYIYYGSFFDYWGQGVMVTVSS VL: QFVLSQPNSVSTNLGSTVKLSCKRSTGNIGSNYVSWYQQHEGRSPTTMIYRDDKRPDGVPDRFSGSIDRSSDSALLTINNVQTEDEADYFCQSYSSGINIFGGGTKLTVLG', 'Mean fluorescence intensity ratio', 1.02),
  ('iCADM3_3R1-L8_04 VHH-hG4PE(R409K) (Fc fusion, also called iCADM3-3R1-L8_04 humanized antibody; not shown: Hinge-CH2-CH3 region of the human IgG4 heavy chain constant region (IgG4 variant)) QVQLVESGGGLVQPGGSLRLSCAASGRTFSNYARGWFRQAPGKEREFVAAIDYSGGSTNYADSAKGRFTISRDNSKNTVYLQMNSLRAEDTAVYYCAAPASRRPSWDADGYDYWGQGTLVTVSS', 'Mean fluorescence intensity ratio', 9.62),
  ('iCADM3_3R1-L8_03 VHH-hG4PE(R409K) (Fc fusion, also called iCADM3-3R1-L8_03 humanized antibody; not shown: Hinge-CH2-CH3 region of the human IgG4 heavy chain constant region (IgG4 variant)) QVQLVESGGGLVQPGGSLRLSCAASGRTFSNYARGWFRQAPGKGREFVAAIDYSGGSTNYADSAKGRFTISRDNSKNTVYLQMNSLRAEDTAVYYCAAPASRRPSWDADGYDYWGQGTLVTVSS', 'Mean fluorescence intensity ratio', 8.54),
  ('iCADM3_3R1-L8_02 VHH-hG4PE(R409K) (Fc fusion, also called iCADM3-3R1-L8_02 humanized antibody; not shown: Hinge-CH2-CH3 region of the human IgG4 heavy chain constant region (IgG4 variant)) QVQLVQSGGGLVQPGGSLRLSCAASGRTFSNYARGWFRQAPGKEREFVAAIDYSGGSTNYADSAKGRFTISRDNSKNTLYLQMNSLRAEDTAVYYCAAPASRRPSWDADGYDYWGQGTLVTVSS', 'Mean fluorescence intensity ratio', 4.83),
  ('iCADM3_3R1-L8_01 VHH-hG4PE(R409K) (Fc fusion, also called iCADM3-3R1-L8_01 humanized antibody; not shown: Hinge-CH2-CH3 region of the human IgG4 heavy chain constant region (IgG4 variant)) QVQLVQSGGGLVQPGGSLRLSCAASGRTFSNYARGWFRQAPGKGREFVAAIDYSGGSTNYADSAKGRFTISRDNSKNTLYLQMNSLRAEDTAVYYCAAPASRRPSWDADGYDYWGQGTLVTVSS', 'Mean fluorescence intensity ratio', 3.71);
